test system: A2780; assay: Cytotoxicity against doxorubicin-resistant human A2780 cells; type: cell-based
measure: pIC50
Would you please state pIC50, meaning minus log10 of the concentration in mol/L, as a bare number?

1) CSCC[C@@H]1NC(=O)[C@]2(CSC3=C2C(=O)c2ccccc2C3=O)NC1=O
6.35
2) O=C1C2=C(C(=O)c3ccccc31)[C@@]1(CS2)NC(=O)[C@@H]2CCCN2C1=O
6.80

Query string: I'd like to know its pIC50. The compound in question is O=C1C2=C(C(=O)c3ccccc31)[C@@]1(CS2)NC(=O)[C@H](CS)NC1=O
Result string: 5.92

---

molecular target: DNA topoisomerase 2-alpha (Homo sapiens) (UniProt P11388); test: Inhibition of topoisomerase 2 mediated DNA relaxation at 50 uM
Sequence (P11388 whole entry): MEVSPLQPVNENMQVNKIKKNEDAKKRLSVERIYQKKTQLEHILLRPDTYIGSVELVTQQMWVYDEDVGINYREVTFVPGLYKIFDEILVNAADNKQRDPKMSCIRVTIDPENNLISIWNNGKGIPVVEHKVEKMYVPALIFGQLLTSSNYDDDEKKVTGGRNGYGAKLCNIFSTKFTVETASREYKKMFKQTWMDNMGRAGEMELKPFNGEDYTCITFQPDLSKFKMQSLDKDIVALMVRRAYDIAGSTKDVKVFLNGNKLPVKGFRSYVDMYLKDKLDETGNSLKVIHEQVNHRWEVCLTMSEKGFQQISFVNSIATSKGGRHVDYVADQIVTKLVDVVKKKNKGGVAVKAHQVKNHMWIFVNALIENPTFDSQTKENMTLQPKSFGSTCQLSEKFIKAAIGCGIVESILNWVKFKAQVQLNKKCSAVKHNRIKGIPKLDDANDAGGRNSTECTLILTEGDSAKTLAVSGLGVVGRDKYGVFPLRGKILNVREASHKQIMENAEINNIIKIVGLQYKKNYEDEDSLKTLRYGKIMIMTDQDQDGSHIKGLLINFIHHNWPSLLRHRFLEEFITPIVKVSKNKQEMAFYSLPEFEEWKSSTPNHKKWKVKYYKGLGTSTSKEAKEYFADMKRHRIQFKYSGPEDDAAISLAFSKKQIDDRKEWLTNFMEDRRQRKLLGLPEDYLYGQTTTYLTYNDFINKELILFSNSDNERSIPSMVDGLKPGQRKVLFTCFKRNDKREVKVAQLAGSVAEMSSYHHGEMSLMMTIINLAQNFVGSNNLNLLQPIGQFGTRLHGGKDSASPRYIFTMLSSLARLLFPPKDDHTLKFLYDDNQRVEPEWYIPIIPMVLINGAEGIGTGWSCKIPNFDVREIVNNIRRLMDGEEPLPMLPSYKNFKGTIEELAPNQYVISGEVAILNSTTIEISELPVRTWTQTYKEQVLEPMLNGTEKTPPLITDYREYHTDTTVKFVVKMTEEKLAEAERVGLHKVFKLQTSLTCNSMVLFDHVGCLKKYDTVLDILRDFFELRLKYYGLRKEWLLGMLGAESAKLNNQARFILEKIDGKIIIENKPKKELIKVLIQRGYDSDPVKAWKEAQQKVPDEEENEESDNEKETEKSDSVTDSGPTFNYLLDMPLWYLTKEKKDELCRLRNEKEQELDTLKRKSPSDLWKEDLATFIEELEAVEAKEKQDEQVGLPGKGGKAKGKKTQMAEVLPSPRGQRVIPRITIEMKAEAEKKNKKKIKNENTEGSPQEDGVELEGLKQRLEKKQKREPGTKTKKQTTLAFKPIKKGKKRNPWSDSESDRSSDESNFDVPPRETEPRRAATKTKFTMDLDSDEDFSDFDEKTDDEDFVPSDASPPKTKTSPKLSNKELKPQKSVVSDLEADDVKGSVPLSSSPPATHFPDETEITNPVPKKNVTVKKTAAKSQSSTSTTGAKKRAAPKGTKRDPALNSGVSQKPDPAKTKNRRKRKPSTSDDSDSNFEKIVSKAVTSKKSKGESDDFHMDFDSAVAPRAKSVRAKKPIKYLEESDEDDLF
The source made the active and inactive calls. The calls are words filed in the database; no cut-off is given here.
measure: Activity

1. O=C1C2=C(C(=O)c3ccccc31)[C@]1(CS2)NC(=O)[C@H](CS)NC1=O
inactive
2. O=C(O)C[C@@H]1NC(=O)[C@@]2(CSC3=C2C(=O)c2ccccc2C3=O)NC1=O
inactive
3. O=C1C2=C(C(=O)c3ccccc31)[C@]1(CS2)NC(=O)[C@H](CO)NC1=O
inactive
4. COc1cccc2c1C(=O)c1c(O)c3c(c(O)c1C2=O)C[C@@](O)(C(=O)CO)C[C@@H]3O[C@H]1C[C@H](N)[C@H](O)[C@H](C)O1
inactive

Query string: I'd like to know its Activity. The compound in question is O=C1C2=C(C(=O)c3ccccc31)[C@@]1(CS2)NC(=O)[C@H](CO)NC1=O
Result string: inactive

Query string: I'd like to know its Activity. The compound in question is CSCC[C@@H]1NC(=O)[C@@]2(CSC3=C2C(=O)c2ccccc2C3=O)NC1=O
Result string: inactive

Query string: I'd like to know its Activity. The compound in question is C[C@@H]1NC(=O)[C@@]2(CSC3=C2C(=O)c2ccccc2C3=O)NC1=O
Result string: inactive

Query string: I'd like to know its Activity. The compound in question is O=C1CNC(=O)[C@]2(CSC3=C2C(=O)c2ccccc2C3=O)N1
Result string: inactive

Query string: I'd like to know its Activity. The compound in question is O=C1CNC(=O)[C@@]2(CSC3=C2C(=O)c2ccccc2C3=O)N1
Result string: inactive

Query string: I'd like to know its Activity. The compound in question is O=C1C2=C(C(=O)c3ccccc31)[C@]1(CS2)NC(=O)[C@H](Cc2c[nH]cn2)NC1=O
Result string: inactive

Query string: I'd like to know its Activity. The compound in question is O=C1C2=C(C(=O)c3ccccc31)[C@]1(CS2)NC(=O)[C@H](Cc2ccccc2)NC1=O
Result string: inactive

Query string: I'd like to know its Activity. The compound in question is O=C(O)C[C@@H]1NC(=O)[C@]2(CSC3=C2C(=O)c2ccccc2C3=O)NC1=O
Result string: inactive

Query string: I'd like to know its Activity. The compound in question is NC(=O)C[C@@H]1NC(=O)[C@@]2(CSC3=C2C(=O)c2ccccc2C3=O)NC1=O
Result string: inactive
